- Test system: rodent lifetime carcinogenesis bioassay, tumor incidence TD50
- ASSAY COMMENT: carcinogenic potency in animals, long-term in vivo studies, CPDB compilation (AID 1745844)
- TEST SETTINGS: rat; strain Charles River CD (Sprague-Dawley); males; inhaled; site: nose; lesion: benign tumor; dosed 104 weeks; study length 104 weeks
MEASURED QUANTITY: TD50

Supply recorded TD50 for `C=COC(C)=O` here.
1240 mg/kg/day

---

- Tested on: rodent lifetime carcinogenesis bioassay, tumor incidence TD50
- ASSAY COMMENT: carcinogenic potency in animals, long-term in vivo studies, CPDB compilation (AID 1745844)
- TEST SETTINGS: rat; strain F344/DuCrj; females; in feed; site: any site (literature study); lesion: several types; types named in the paper; dosed 108 weeks; study length 108 weeks
Active and inactive are the calls of the source. No rule for the calls is given here.
MEASURED QUANTITY: TD50

Fill in TD50 for record `O=P(=O)O`
5100 mg/kg/day (inactive)
